Exercise: for every item that follows, state its recorded log10(Kd).
target_or_test_system: T1, EsCas13d, nuclease-dead (Eubacterium siraeum, UniProt B0MS50, R295A;H300A;R849A;H854A)
T1 sequence: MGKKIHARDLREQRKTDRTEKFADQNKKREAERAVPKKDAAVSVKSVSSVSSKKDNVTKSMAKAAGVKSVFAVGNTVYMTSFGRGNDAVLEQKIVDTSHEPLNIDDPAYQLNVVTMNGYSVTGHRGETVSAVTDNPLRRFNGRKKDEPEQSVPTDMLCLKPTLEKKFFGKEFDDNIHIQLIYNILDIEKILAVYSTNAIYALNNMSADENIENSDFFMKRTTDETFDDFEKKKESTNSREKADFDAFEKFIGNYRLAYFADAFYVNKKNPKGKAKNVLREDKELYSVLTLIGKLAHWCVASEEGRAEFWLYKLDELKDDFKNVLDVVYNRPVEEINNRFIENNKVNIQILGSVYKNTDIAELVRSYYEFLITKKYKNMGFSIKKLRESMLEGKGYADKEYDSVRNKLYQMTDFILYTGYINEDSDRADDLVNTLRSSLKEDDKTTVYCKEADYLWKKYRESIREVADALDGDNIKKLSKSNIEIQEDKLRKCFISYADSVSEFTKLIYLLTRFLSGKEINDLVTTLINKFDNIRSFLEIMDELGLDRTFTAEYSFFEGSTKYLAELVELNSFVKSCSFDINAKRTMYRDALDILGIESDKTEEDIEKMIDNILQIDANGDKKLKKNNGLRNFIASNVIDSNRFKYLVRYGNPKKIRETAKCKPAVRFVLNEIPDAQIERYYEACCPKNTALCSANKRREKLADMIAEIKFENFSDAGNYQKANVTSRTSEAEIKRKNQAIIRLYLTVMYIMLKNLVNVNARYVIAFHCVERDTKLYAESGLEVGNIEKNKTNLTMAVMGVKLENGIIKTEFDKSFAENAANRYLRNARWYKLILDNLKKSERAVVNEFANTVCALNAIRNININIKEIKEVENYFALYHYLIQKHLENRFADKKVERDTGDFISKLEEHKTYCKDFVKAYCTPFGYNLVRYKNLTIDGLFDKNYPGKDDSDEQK
procedure_summary: crRNA (strand 1, pre-loaded); Mg2+; 40 mM Tris-HCl pH 7.5, 150 mM NaCl, 6 mM MgCl2, 1 mM DTT, 0.1% Tween-20, 0.2 mg/ml BSA; 25 C; 10 min per concentration, then washed
condition_details: tags: His6-TwinStrep-SUMO cleaved; N-terminal SNAP kept (SNAP-Surface 488); label: 3' end held by stalled T7 RNA polymerase
All values: log10 Kd [nM].

Ask: Give the reported value of log10(Kd) for this record: target 1 insG 3' of 18,insU 3' of 13 (mixed) RNA 1: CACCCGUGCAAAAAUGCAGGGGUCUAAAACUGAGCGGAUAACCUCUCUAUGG RNA 2: GGGAAUGGAUCCACAUCUACGAAUUCGUACCAUAGGAGAGUGUUAUCCGCUCACCGAGAUCGGAAGAGCACACGU
Reply: 1.85

Ask: Give the reported value of log10(Kd) for this record: target 1 insA 3' of 12,insU 3' of 5 (mixed) RNA 1: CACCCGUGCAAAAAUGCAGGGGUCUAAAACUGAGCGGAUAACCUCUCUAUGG RNA 2: GGGAAUGGAUCCACAUCUACGAAUUCGUACCAUAGAGAGGAUUAUCCGUCUCACCGAGAUCGGAAGAGCACACGU
Reply: 1.55

Ask: Give the reported value of log10(Kd) for this record: target 1 C6U,U8A (mixed) RNA 1: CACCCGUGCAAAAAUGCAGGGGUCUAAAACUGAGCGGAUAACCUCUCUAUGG RNA 2: GGGAAUGGAUCCACAUCUACGAAUUCGUACCAUAGAGAGGUUAACUGCUCACCGAGAUCGGAAGAGCACACGU
Reply: 1.18

Ask: Give the reported value of log10(Kd) for this record: target 3 insU 3' of 5,insU 3' of 5 (mixed) RNA 1: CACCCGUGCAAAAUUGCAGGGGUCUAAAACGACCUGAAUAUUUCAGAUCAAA RNA 2: GGGAAUGGAUCCACAUCUACGAAUUCGUUUUUGAUCUGAAAUAUUCAUUGGUCUGCAGAUCGGAAGAGCACACGU
Reply: 0.59

Ask: Give the reported value of log10(Kd) for this record: target 1 insA 3' of 4,insA 3' of 4 (mixed) RNA 1: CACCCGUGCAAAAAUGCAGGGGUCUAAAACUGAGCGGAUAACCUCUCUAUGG RNA 2: GGGAAUGGAUCCACAUCUACGAAUUCGUACCAUAGAGAGGUUAUCCGCAAUCACCGAGAUCGGAAGAGCACACGU
Reply: 0.77
